Recorded self-cleavage, one value per entry.
B1: Hairpin Ribozyme (parent)
chain: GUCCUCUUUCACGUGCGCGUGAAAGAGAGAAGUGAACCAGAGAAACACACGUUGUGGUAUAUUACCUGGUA

- Variants of: B1
- measurementProtocol: self-cleavage, relative activity (ratio to wild type); higher = more cleavage; co-transcriptional

{"columns": ["mutationLabel", "self-cleavage"],
 "data": [
  ["A23C U58G", 0.674],
  ["U7C A47U", 0.0995],
  ["A41C U53G", 0.758],
  ["A24C U62A", 0.3],
  ["A26G G56A", 0.271],
  ["A23U U52A", 0.947],
  ["C3A G69A", 0.275],
  ["A24C A31G", 0.66],
  ["U7A G40C", 0.166],
  ["A36G G40C", 0.122],
  ["G13U G57U", 0.202],
  ["U2C G25A", 0.195],
  ["G15U A43G", 0.151],
  ["C12U G68C", 0.191],
  ["C16A G69U", 0.334],
  ["C4G U58G", 0.241],
  ["G17A G21C", 0.834],
  ["U7C A47C", 0.205],
  ["A22U U70C", 0.876],
  ["G57U A64C", 0.139],
  ["C3U A28G", 0.554],
  ["U8G U67A", 0.145]
]}
